# Method summary: MELAS cybrid and Rieske KO viability enhancers – cell-based, MELAS cybrids, Rieske KO mouse fibroblasts, CellTiter-Glo, primary screen (AID 1508586);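 also: z relative to plate mean and SD of compound and empty wells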
# Recorded conditions: MELAS cybrid survival, low glucose, CellTiter-Glo 48 h; stronger effect = higher value
# Lookup of reported z-score keyed by entry
Please give only the number in your answer, with no unit.

Example entries begin here.
Exam item: # input compound: "COc1ccc(Cn2ccc3ccc(C(=O)NO)cc32)cc1" ; wanted: its z-score
Marked response: -0.343

Exam item: Query "C#Cc1cccc(Nc2ncnc3cc4c(cc23)OCCOCCOCCO4)c1" next
Marked response: 0.219

Exam item: Query "O=C(NC1CCOCC1)c1ccc(-c2cc(-c3cn[nH]c3-c3ccccn3)ccn2)cc1" next
Marked response: -0.384

Exam item: Query "Cc1c(NC(=O)c2ccc(C(C)(C)C)cc2)cccc1-c1cn(C)c(=O)c(Nc2ccc(C(=O)N3CCOCC3)cc2)n1" next
Marked response: -0.54

# next compound below
Exam item: # input compound: "CN1CCN(C2CCN(C(=O)Nc3cc(Oc4ccc(NC(=O)C5(C(=O)Nc6ccc(F)cc6)CC5)c(F)c4)ccn3)CC2)CC1" ; wanted: its z-score
Marked response: -0.56

====

# Method summary: growth inhibition, single agents and combos, HTB85, cell-based, BGB or cisplatin IC20 combos, synergistic combos for chromothripsis tumors (AID 1671453);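 also: cells exposed for 96 hours before readout; 0% = vehicle DMSO and 100% = high DMSO killing control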
# Recorded conditions: HTB85 osteosarcoma cells, drug combinations, measured here: with BGB IC20, at 0.5 µM, stronger effect = higher value
Experimental readout: inhibition (%)
Number in %, nothing else.

Example entries begin here.
Exam item: # input molecule: "CN(C)C/C=C/C(=O)Nc1ccc(C(=O)Nc2cccc(Nc3ncc(Cl)c(-c4c[nH]c5ccccc45)n3)c2)cc1" ; wanted: its inhibition
Marked response: 89.2

Exam item: Query "COc1ccc(-n2c(SCCCN3C(=O)c4cccc5cccc(c45)C3=O)nnc2-c2ccncc2)cc1" next
Marked response: 6.74

# next molecule below
Exam item: # input molecule: "Nc1ccc(-c2ccc3ncc4ccc(=O)n(-c5cccc(C(F)(F)F)c5)c4c3c2)cn1" ; wanted: its inhibition
Marked response: 35.5

====

# Method summary: viability loss in pontine glioma line – cell-based, SU-DIPG-XIII, MIPE4.0, CellTiter-Glo, qHTS, dose response (AID 1347061);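 also: cells exposed to compound for 48 hours before readout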
# Recorded conditions: CellTiter-Glo ATP luminescence
Records with an inconclusive call do not appear. Active and inactive are the calls of the source. Cut-off not given; nearly all actives show AC50 up to about 37 µM.
Your response should consist of one outcome taken from 1 for active, 0 for inactive

Exam item: Hi team, can someone confirm the assay call for "C[C@@]1(C(=O)Nc2ccc(F)nc2)CCCN1c1nc(Nc2cc(C3CC3)[nH]n2)c2cccn2n1" ?
Marked response: 1

Exam item: Query "C[C@@H]1CN(CC(=O)Nc2ccc3c(c2)Cc2cccc(-c4cc(=O)cc(N5CCOCC5)o4)c2S3)C[C@H](C)O1" next
Marked response: 0

Exam item: Query "CCNC(=O)[C@H]1O[C@@H](n2cnc3c(N)nc(NCCc4ccc(CCC(=O)O)cc4)nc32)[C@H](O)[C@@H]1O" next
Marked response: 0

Exam item: Query "CC(C)(C)c1[nH]cnc1/C=c1\[nH]c(=O)/c(=C/c2ccccc2)[nH]c1=O" next
Marked response: 1

Exam item: Query "COc1cc(N2CCN(C)CC2)ccc1Nc1nc(N)c(C(=O)c2c(Cl)cccc2Cl)s1" next
Marked response: 0

Others:
Exam item: Hi team, can someone confirm the assay call for "O=C(C1CC1)N1CC[C@@H](Cn2c(-c3ccc(-c4ccc5occc5c4)cc3)nc3cnccc32)C1" ?
Marked response: 0

Exam item: Query "NC(=O)c1cnc(-c2ccc(C3(N)CCC3)cc2)c(-c2ccccc2)c1" next
Marked response: 0

Exam item: Query COc1ccc2cc(-c3nc(-c4ccc(S(C)=O)cc4)[nH]c3-c3ccncc3)ccc2c1 (configuration not stated) next
Marked response: 0

Origin of measurements: PubChem BioAssay
